assay: qHTS of pediatric cancer cell lines to identify multiple opportunities for drug repurposing: Confirmatory screen for RD cells (AID 1347124); settings: RD rhabdomyosarcoma cell viability; series mostly up to 45.9 µM;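 also: cells exposed to compound for 48 h before viability readout; nearly all actives have a fitted effect of over 65% in size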; also: potency is read from the fitted curve at half-maximal effect
Records with an inconclusive call do not appear. Activity calls are given as the source filed them. Calls follow the shape of the dose curve; as a rule, active = well fitted cell-killing curve with a large enough effect; inconclusive = small, poorly fitted or top-dose-only effect, or effect the other way; inactive = no such curve, though single readings can be large or run the other way.
Readout: Potency

What value of Potency has been reported for the following compound? `CNC(=O)c1ccccc1Nc1nc(Nc2ccc(N3CCOCC3)cc2OC)ncc1Cl`
827 nM (active)

What value of Potency has been reported for the following compound? `COCCn1c2c([n+](Cc3cnccn3)c1C)C(=O)c1ccccc1C2=O`
26.1 nM (active)

What value of Potency has been reported for the following compound? `CC(=O)OCC(=O)[C@@]1(O)[C@H](C)C[C@H]2[C@@H]3C=C(C)C4=Cc5c(cnn5-c5ccccc5)C[C@]4(C)[C@@H]3[C@@H](O)C[C@@]21C`
9270 nM (active)

What value of Potency has been reported for the following compound? `CC(C)c1nn(-c2c(Cl)cccc2Cl)c2nc(Cc3ccc(OCCO)cc3)[nH]c(=O)c12`
208 nM (active)

What value of Potency has been reported for the following compound? `CC(C)(C)NC(=O)[C@H]1CN(Cc2cccnc2)CCN1C[C@@H](O)C[C@@H](Cc1ccccc1)C(=O)N[C@H]1c2ccccc2C[C@H]1O`
inactive

What value of Potency has been reported for the following compound? `CC[C@H]1CN2CCc3cc(OC)c(OC)cc3[C@H]2C[C@@H]1C[C@@H]1NCCc2cc(OC)c(OC)cc21`
369 nM (active)

For each of the compounds below, state Potency.
1. COC(=O)Nc1nc2ccc(C(=O)c3ccc(F)cc3)cc2[nH]1
2. O=C(Nc1cn[nH]c1-c1nc2ccc(CN3CCOCC3)cc2[nH]1)NC1CC1
3. NCC(=O)Nc1ccc(-n2nc(C(F)(F)F)cc2-c2ccc3c(ccc4ccccc43)c2)cc1
4. COc1cc2c(Oc3ccc(-c4cnc(Nc5ccc(F)cc5)n(C)c4=O)cc3F)ccnc2cc1OCCCN1CCOCC1

1. 2930 nM (active)
2. inactive
3. 5220 nM (active)
4. 11700 nM (active)

For each of the compounds below, state Potency.
1. C=CCn1c(=O)c2cnc(Nc3ccc(N4CCN(C)CC4)cc3)nc2n1-c1cccc(C(C)(C)O)n1
2. O=C(Nc1ncc(-c2cc(C(F)F)nn2-c2c(Cl)cccc2Cl)s1)C1CC1
3. Cc1cn2c(-c3cn[nH]c3)cnc2c(Nc2ccc(C(=O)N3CCNCC3)cc2F)n1
4. CCOc1cc2ncc(C#N)c(Nc3ccc(F)c(Cl)c3)c2cc1NC(=O)C=CCN(C)C
5. CCNC(=O)Nc1ccc2ncc(Nc3ccc(C)cc3)nc2n1

1: 737 nM (active); 2: 827 nM (active); 3: inactive; 4: inactive; 5: inactive

For each of the compounds below, state Potency.
1. COc1cc2nccc(Oc3ccc(NC(=O)C4(C(=O)Nc5ccc(F)cc5)CC4)cc3)c2cc1OC
2. CN(C)CC(C)(C)CNc1nn2c(-c3ccccc3)nnc2cc1C1CCC1
3. Cc1nc(N)ncc1-c1nc(N2CCOCC2)c2sc(C(C)(C)O)cc2n1
4. CN(C)Cc1c(C(=O)NCCOc2ccc(C(=O)NO)cc2)oc2ccccc12

1: inactive; 2: inactive; 3: 1170 nM (active); 4: 1650 nM (active)

For each of the compounds below, state Potency.
1. C=CC(=O)N1CCC[C@@H](n2nc(-c3ccc(Oc4ccccc4)cc3)c3c(N)ncnc32)C1
2. CCS(=O)(=O)c1cccc(-c2cc(C(=O)NC3CCN(C)CC3)c(C)c3[nH]c4ncc(C)cc4c23)c1
3. CCC1=C[C@@H]2CN(C1)Cc1c([nH]c3ccccc13)[C@@](C(=O)OC)(c1cc3c(cc1OC)N(C)[C@@H]1[C@@](O)(C(=O)OC)[C@H](OC(C)=O)[C@]4(CC)C=CCN5CC[C@]31[C@@H]54)C2
4. Cc1cc(Nc2cc(NC(=O)c3c(Cl)cccc3Cl)ccn2)nc(N)n1
5. CCCCc1nc2cc(C=CC(=O)NO)ccc2n1CCN(CC)CC

1. inactive
2. 2610 nM (active)
3. 369 nM (active)
4. inactive
5. 2330 nM (active)

* * *

test: qHTS drug screen for cell cycle checkpoint inhibitors in PARPi-resistant BRCA-mutant ovarian cancer cell lines. (AID 1963452); conditions: PEO1/OlaR viability, CellTiter-Glo luminescence, 96 h; measured here: PEO1 parental Z-AUC; stronger effect = lower value
Kindly supply the reported Z-AUC values for the records listed here.
Answers are plain numbers.

What value of Z-AUC has been reported for the following molecule? `CN(C)Cc1c(C(=O)NCCOc2ccc(C(=O)NO)cc2)oc2ccccc12`
-1.25

What value of Z-AUC has been reported for the following molecule? `O=C(NCCCNc1nc(Nc2cccc(NC(=O)N3CCCC3)c2)ncc1I)c1cccs1`
1.02

What value of Z-AUC has been reported for the following molecule? `CN1CCN(c2cc(C(=O)Nc3ccc4c(c3)-c3c(c(C(N)=O)nn3-c3ccc(F)cc3)CC4)c(Cl)cn2)CC1`
0.439

For each of the molecules below, state Z-AUC.
1. Clc1cccc(-n2nnnc2NCc2ccccc2Oc2ccccn2)c1Cl
2. CN1c2cc(O)c(N=NC(N)=O)cc2CC1S(=O)(=O)O (centres undefined)
3. Nc1ccn([C@@H]2CS[C@H](CO)O2)c(=O)n1
4. CS(=O)(=O)N1CCN(Cc2cc3nc(-c4cccc5[nH]ncc45)nc(N4CCOCC4)c3s2)CC1

1: -0.502; 2: 0.677; 3: -0.233; 4: 0.321

For each of the molecules below, state Z-AUC.
1. CCCn1c(=O)c2[nH]c(-c3cnn(Cc4cccc(C(F)(F)F)c4)c3)nc2n(CC)c1=O
2. CC(C)c1cc(C(=O)N2Cc3ccc(CN4CCN(C)CC4)cc3C2)c(O)cc1O
3. COc1ccc(CC2c3cc(OC)c(OC)cc3CC[N+]2(C)CCC(=O)OCCCCCOC(=O)CC[N+]2(C)CCc3cc(OC)c(OC)cc3C2Cc2ccc(OC)c(OC)c2)cc1OC (centres undefined)

[1.45, -0.777, 0.569]

For each of the molecules below, state Z-AUC.
1. CN1CCN(c2ccc3nc(-c4c(N)c5c(F)cccc5[nH]c4=O)[nH]c3c2)CC1
2. COc1cc2c(Oc3ccc(-c4cnc(Nc5ccc(F)cc5)n(C)c4=O)cc3F)ccnc2cc1OCCCN1CCOCC1
3. CCc1c2c(nc3ccc(O)cc13)-c1cc3c(c(=O)n1C2)COC(=O)[C@]3(O)CC
4. COc1ccc2c(c1)CC[C@@H](CN(C)CC(=O)O)[C@H]2c1ccccc1

-0.682
-0.565
-3.8
1.17

* * *

experiment: qHTS of pediatric cancer cell lines to identify multiple opportunities for drug repurposing: Primary screen for BT-37 cells (AID 1347094); conditions: BT-37 viability, CellTiter-Glo luminescence, 48 h; series mostly up to 57.3 µM; also: potency is read from the fitted curve at half-maximal effect
Results filed as inconclusive are left out. The source made the active and inactive calls. The call rests on the fitted dose curve; in most records, active means well fitted cell-killing curve with a large enough effect; inconclusive means small, poorly fitted or top-dose-only effect; inactive means flat fitted curve, though single readings scatter.
Readout: Potency

// known answers, use as guide
What value of Potency has been reported for the following compound? `CC1(C)CCC(c2ccc(Cl)cc2)=C(CN2CCN(c3ccc(C(=O)NS(=O)(=O)c4ccc(N[C@H](CCN5CCOCC5)CSc5ccccc5)c(S(=O)(=O)C(F)(F)F)c4)cc3)CC2)C1`
13.7 µM (active)

What value of Potency has been reported for the following compound? `Clc1ccc2ncc(-c3cccc(NC4CNC4)n3)n2c1`
17.2 µM (active)

Further cases:
What value of Potency has been reported for the following compound? `CC1=C(CO)C(=O)O[C@@H]([C@@H](C)[C@H]2CC[C@H]3[C@@H]4C[C@H]5O[C@]56[C@@H](O)C=CC(=O)[C@]6(C)[C@@H]4CC[C@]23C)C1`
2.17 µM (active)

* * *

Test: qHTS drug screen for cell cycle checkpoint inhibitors in PARPi-resistant BRCA-mutant ovarian cancer cell lines. (AID 1963452)
Conditions: PEO1/OlaR viability, CellTiter-Glo luminescence, 96 h; measured here: PEO1 parental Z-AUC; stronger effect = lower value
Text: Women's Malignancies Branch, Center for Cancer Research (CCR), National Cancer Institute (NCI), National Institutes of Health (NIH), Bethesda, MD Poly (ADP-ribose) polymerase inhibitors (PARPis) have changed the treatment paradigm in breast cancer gene (BRCA) - mutant high-grade serous ovarian carcinoma (HGSC). […] 6; Detection; Luminescence, PHERAstar (BMG Labtech) plate reader. […] 6. Luminescence readings were taken using PHERAstar (BMG Labtech). […]
Readout: Z-AUC
Answers are plain numbers.

What value of Z-AUC has been reported for the following molecule? `Cn1cncc1[C@@](N)(c1ccc(Cl)cc1)c1ccc2c(c1)c(-c1cccc(Cl)c1)cc(=O)n2C`
0.145

What value of Z-AUC has been reported for the following molecule? `Nc1ccccc1NC(=O)c1ccc(CNc2nccc(-c3cccnc3)n2)cc1`
-0.821

Now take the following molecule into account.
What value of Z-AUC has been reported for the following molecule? COc1ccc(-c2cc3c(C)nc(N)nc3n(C3CCC(OCCO)CC3)c2=O)cn1 (stereo not drawn)
-1.22

// provenance: PubChem BioAssay (NCATS)
